Tested on: Lefty1
experimental_protocol: Lefty1 protein binding to printed compounds – biochemical, small-molecule microarray, 635/667 nm fluorescence, primary screen (AID 1139)
condition_context: fluorescence 635/667, higher = more signal
Decision: composite z-score compared against 0.5; not below it gives class 1, below it gives class 0.

Task: Dear colleague, could you confirm whether COC(=O)[C@@]1(Cc2ccccc2)[C@H]2c3cc(C(=O)N(C)C)n(Cc4ccc(C)o4)c3C[C@H]2CN1C(=O)c1ccccc1 has composite z-score at or above 0.5?
Result: class 0

Task: Could you verify whether the entry C[N+](C)(C)CCCC[C@@H]1NC(=O)[C@@H]2C[C@H](C(=O)NCCCCCCN)[C@H](c3cccc(OCCO)c3)N2C1=O shows composite z-score of no less than 0.5?
Result: class 1

Task: // inclusive: composite z-score at least 0.5? input: NC(=O)NCC#Cc1ccc2c(c1)[C@]1(C(=O)N2)[C@H](c2ccccc2OCCO)N2[C@H](c3ccccc3)[C@H](c3ccccc3)OC(=O)[C@H]2[C@@H]1C(=O)O
Result: class 0

###

Tested on: Human papillomavirus type 1a E7 protein (residues 1-88)
experimental_protocol: HPV1a E7 small-molecule binders, primary screen, biochemical, small-molecule microarray, residues 1-88, 635 nm (AID 1129)
condition_context: small-molecule microarray binding, fluorescence 635 nm; higher = more signal
readout: composite z-score
Give only the figure.

compound	composite z-score
COC(=O)[C@@]1(Cc2ccc(OC)cc2)[C@H]2c3cc(C(=O)N(C)C)n(Cc4ccc(OC(F)(F)F)cc4)c3C[C@H]2CN1C(=O)c1ccccc1	0.299
C[N+](C)(C)CCCC[C@@H]1NC(=O)[C@@H]2C[C@H](C(=O)NCCCCCCN)[C@H](c3cccc(OCCO)c3)N2C1=O	1.16

Task: Endpoint output: composite z-score of C=CCC(OC(C)=O)[C@@H]1[C@@H](N(Cc2ccc(-c3ccccc3)cc2)C(=O)c2ccc(-c3ccccc3)cc2)c2cc(OCCCO)ccc2N1C(=O)c1ccc2ccccc2c1 (stereo not given in full) . Value?
Result: 0.0751

Task: Which composite z-score is listed for CCOC(=O)C[C@H]1[C@H](OC(=O)Cc2ccc3c(c2)OCO3)[C@@H](NC(=O)c2ccc3ccccc3n2)c2cc(OCCCO)ccc2N1C(=O)c1ccc2ccccc2n1 ?
Result: 0.496

Task: Recorded composite z-score for C=C[C@@H](OC)[C@H](OC(=O)Nc1ccc(OC)cc1)c1ccc(O)c(F)c1 , please?
Result: -0.0707

Task: Requested read-out: composite z-score. Entry: [N-]=[N+]=Nc1ccccc1[C@H]1OC(c2ccc(OCCCO)cc2)=N[C@@]1(Cc1ccccc1)C(=O)NCCN1CCOCC1
Result: 1.23

Task: composite z-score for CO[C@H]1O[C@H](CO)[C@@H](OC(=O)CCc2ccccc2)[C@@H]2OC(=O)[C@@H](Cc3ccccc3)C/C=C/C[C@H](Cc3ccccc3)C(=O)O[C@@H]12 ?
Result: 1.03

###

experimental_protocol: COS7 lysate on small-molecule microarray, probe aHis, 635 nm (AID 1123);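 note: z-score combines 667nm fluorescence intensity with signal-to-noise per printed compound spot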
condition_context: COS7 cell lysate, fluorescence, higher = more signal
Mark 1 for reported composite z-score of 1 or greater; mark 0 for anything smaller.

Some solved cases for reference:
molecule	class_assignment
COc1ccc([Si](C)(C)[C@@H]2[C@@H](CCO)O[C@]3(C(=O)N(Cc4ccccc4)c4ccc(N5CCOC5=O)cc43)[C@H]2C)cc1	0
COc1ccc([Si](C)(C)[C@@H]2[C@@H](CC(=O)N(CCO)Cc3ccccc3)O[C@]3(C(=O)N(Cc4cccc(N5CCCCC5=O)c4)c4ccccc43)[C@H]2C)cc1	1
C[C@@H]1NC(=O)[C@@H](Cc2ccccc2)NC(=O)[C@@]23C(=O)N[C@@H](Cc4ccccc4)C2[C@H](C)[C@@]2(C)O[C@H]2C3/C=C/C/C=C\CNC1=O (some centres not stated)	1
O=C(NCCN1CCOCC1)[C@@H]1c2ccccc2C(=O)N(C2Cc3ccccc3C2)[C@H]1c1ccc(CO)cc1	0
COc1ccc([Si](C)(C)[C@@H]2[C@@H](CCO)O[C@]3(C(=O)N(Cc4cccc(NC(=O)[C@H](C)O)c4)c4ccccc43)[C@H]2C)cc1	1
CC(C)(C)OC(=O)COc1cccc(C(=O)CCN2CCOCC2)c1	0

Attention now shifts to the item below.
Task: Is composite z-score at least 1? Consider O=C(C1N=C(c2ccc(OCCCO)cc2)N(c2ccccc2)O1)N1CCCCC1 (configuration not stated)
Result: 1

###

target_desc: Focal adhesion kinase 1 (Homo sapiens)
experimental_protocol: PTK2 protein binding on printed compound slides – biochemical, small-molecule microarray, 635/667 nm fluorescence, BSA, DTT, primary screen (AID 1130);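 note: composite of spot emission at 667 nm and signal to noise over triplicate slides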
condition_context: 635 nm fluorescence, higher = more signal
readout: composite z-score
Form field (numeric): enter value without unit.

compound	target_desc	composite z-score
CC(c1ccccc1)C(O)C1C=CC2C(=O)N(C)C(=O)C2N1Nc1ccccc1 (centres undefined)	Focal adhesion kinase 1 (Homo sapiens)	0.322

Task: # composite z-score lookup, item CC(C)[Si]1(C(C)C)OCc2cc(C3CC3)nc(-c3ccc(Oc4ccccc4)cc3)c21
Result: -0.0826

Task: Query: composite z-score; subject: COC(=O)[C@@]1(Cc2ccc(OC)cc2)[C@H]2c3cc(C(=O)N4CCCC4)n(CCc4c[nH]c5ccc(OC)cc45)c3C[C@H]2CN1C(=O)c1ccccc1
Result: 0.894

Task: Any idea what composite z-score was measured for CC(C)[Si]1(C(C)C)OCc2cc(-c3ccc(-c4ccc(Cl)c(Cl)c4)o3)nc(-c3ccccc3)c21 ?
Result: -0.838

###

experimental_protocol: changes in parasitized red cell lysis, either direction – P. falciparum Indochina, OD700, 3 h, PSAC antagonist project, primary screen (AID 1156)
condition_context: P. falciparum-infected erythrocytes, osmotic lysis, higher = more signal, called active from +8 up or from −8 down
readout: z-score
// no unit string in output, number only

Worked cases, z-score given:
compound	quantitative_readout
CC(C)C(O)C1C=CC2C(=O)N(c3ccccc3)C(=O)C2N1Nc1ccccc1 (stereo not drawn)	1.33
Cc1ccc(S[C@]2(C(=O)O)CC(=O)N(C3CCCCC3)[C@@H]2c2ccc(CO)cc2I)cc1	0.796
C=C(COC)C(=O)CC[C@@H](OC(C)=O)c1cccc(OCCO)c1	0.864
OCCCC1=CC(c2ccc(CN3CCCC3)cc2)N(Cc2cc3c(cc2Br)OCO3)CC1 (stereo not drawn)	0.795
CCCCN1CC=CC23O[C@@H]4/C=C\CCC(C)OC(=O)C4[C@H]2C(=O)N(CCCO)[C@@H]3C1=O (stereo partly drawn)	-0.23
O=C1CS(=O)(=O)C(c2cccc([N+](=O)[O-])c2)N1c1ccccc1 (stereo not drawn)	-0.903
N[C@@H](Cc1ccccc1)C(=O)NCc1cn(Cc2ccccc2)nn1	-0.0107

Now turn to the next compound.
Task: For the compound shown here, COCCOC(=O)N1C(=O)[C@@]2(c3cc(C#CC4(O)CCCCCC4)ccc31)[C@H](C(=O)N1CCc3cc(OC)c(OC)cc3C1)[C@H]1C(=O)O[C@H](c3ccccc3)[C@H](c3ccccc3)N1[C@@H]2c1ccc(OCCO)cc1 , give the reported z-score.
Result: 1.41

###

experimental_protocol: ATP-based viability of Huh7 replicon cells – cell-based, CellTiter-Glo luminescence, basal, 48 h, cytotoxicity control for HCV replication inhibitor project, primary screen (AID 1143);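 note: Huh7 hepatoma cells carrying a hepatitis C replication reporter with no stimulus; test concentration not given here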
condition_context: higher = more signal, called active from +8 up or from −8 down
Each entry gets 0 if its z-score stays under -0.5, and 1 if its z-score is -0.5 or above.

Solved cases (8 shown):
compound	class_assignment
CC(C)C(CO)N1C(=O)[C@@H]2C3C(=O)OCCC/C=C\[C@H]3OC23C=CCN(Cn2nnc4ccccc42)C(=O)[C@@H]13 (stereo not given in full)	1
COC(=O)C1=CC(CCCO)=CC(c2cccs2)N(C)C=C1C(=O)OC (stereo not given)	0
CCCCCC1=C2CNC(C)(C(=O)OC)C=C2C(C)C1=O (stereo not given)	1
CCOC(=O)C[C@H]1[C@H](OC(=O)Cc2ccc3c(c2)OCO3)[C@@H](NC(=O)c2ccc3ccccc3n2)c2cc(OCCCO)ccc2N1C(=O)c1ccc2ccccc2n1	0
C[N+](C)(C)CCCCCCNC(=O)[C@@H]1C[C@@H]2C(=O)N3CCC[C@H]3C(=O)N2[C@@H]1c1ccc(O)cc1	1
COc1ccc([Si](C)(C)[C@H]2[C@H](CC(=O)N3Cc4ccccc4C[C@H]3CO)O[C@@]3(C(=O)N(Cc4ccc(N5CCOC5=O)cc4)c4ccccc43)[C@@H]2C)cc1	0
[N-]=[N+]=Nc1ccccc1C[C@@]1(C(=O)N2CCOCC2)N=C(c2ccc(OCCCO)cc2)O[C@@H]1c1ccccc1	0
CC(C)c1ccc(NN2C(C(O)c3ccc(C#N)cc3)C=CC3C(=O)N(c4ccccc4)C(=O)C32)cc1 (stereo not given)	0

Task: hey, is z-score for this one >= -0.5? CN(C)C(=O)[C@@]1(Cc2ccccc2CN=[N+]=[N-])N=C(c2ccc(OCCCO)cc2)O[C@H]1c1ccccc1N=[N+]=[N-]
Result: 0

Task: Decide: is the reported value of z-score for [N-]=[N+]=Nc1ccccc1C[C@]1(C(=O)O)COC(c2ccc(OCCCO)cc2)=N1 equal to or greater than -0.5?
Result: 1

Task: # check: z-score of CO[C@H]1O[C@H](CO)[C@@H](OC(=O)Nc2ccc(Br)cc2)[C@@H]2OC(=O)[C@@H](Cc3ccccc3)C/C=C/C[C@H](Cc3ccccc3)C(=O)O[C@@H]12 is greater than or equal to -0.5
Result: 0

Task: Can COCCOC(=O)N1C(=O)[C@@]2(c3cc(C#CCCO)ccc31)[C@H](C(=O)Nc1nc3ccccc3s1)[C@H]1C(=O)O[C@H](c3ccccc3)[C@H](c3ccccc3)N1[C@@H]2c1ccc(O)cc1 be said to have z-score at or above -0.5?
Result: 0

Task: State whether the measured z-score reaches -0.5, counting equality as reaching it, for Cc1ccc(N2C(=O)c3ccccc3[C@@H](C(=O)NCCCN(C)C)[C@@H]2c2ccc(CO)cc2)nc1
Result: 1

Values compiled from PubChem BioAssay.
